Let's look at some compounds and their measured TGI.
- System: M14 melanoma
- ASSAY_OVERVIEW: NCI tumour cell line growth inhibition, 48 h
ASSAY_ENDPOINT: TGI (µM)

COMPOUND: CCCCOc1c(C(=O)O)cc(Br)cc1C(=O)O
VALUE_MODIFIER: >
READING: 100

COMPOUND: O=C1OCC(c2ccc(O)cc2)=C1c1cc(O)c(O)c(O)c1
VALUE_MODIFIER: >
READING: 100

COMPOUND: COc1cc2c3c(n(CCCCNC(=O)OC(C)(C)C)c(=O)c2cc1OC)-c1cc2c(cc1C3=O)OCO2
VALUE_MODIFIER: >
READING: 100

COMPOUND: C=CCNc1nc(O)c(/C=C2\C=Nc3ncccc32)s1
VALUE_MODIFIER: =
READING: 13.1

COMPOUND: CCOc1cc(C(=O)O)c2c(ccc3ccc(OC)c(OC)c32)c1OC
VALUE_MODIFIER: >
READING: 100

COMPOUND: C/C(=N/NC(=S)N(C)C)c1ccccc1O
VALUE_MODIFIER: =
READING: 23.4

COMPOUND: CCOC(=O)CCC(NC(=O)c1ccc(Nc2nc3cc(C(F)(F)F)ccc3nc2C(=O)OCC)cc1)C(=O)OCC (stereo not given)
VALUE_MODIFIER: =
READING: 16.9

COMPOUND: COc1cc(OC)c(/C=C/C(=O)c2ccc(Nc3ncnc4ccccc34)cc2)c(OC)c1
VALUE_MODIFIER: =
READING: 2.5

COMPOUND: CCOP(=O)(OCC)/C(C#N)=C\c1ccsc1
VALUE_MODIFIER: >
READING: 100

COMPOUND: COC(=O)[C@H]1[C@@H](O)[C@@]2(O)c3c(OC)cc(OC)cc3O[C@@]2(c2ccc3c(c2)OCO3)[C@@H]1c1ccccc1
VALUE_MODIFIER: =
READING: 0.0414

---

Let's look at some compounds and their measured TGI.
- Tested on: BT-549 breast
- ASSAY_OVERVIEW: NCI tumour cell line growth inhibition, 48 h

COMPOUND: C=C1C(=O)[C@]23C[C@H]1C[C@@H](O)[C@H]2[C@]1(COC3=O)[C@@H](OC(C)=O)CC[C@@](C)(COC(C)=O)[C@H]1C=O
TGI: > 50 µM

COMPOUND: C/C(=N\NC(=O)CC#N)C(CN1CCCCC1)C(c1ccccc1)c1c(O)c2ccccc2oc1=O (stereo not given)
TGI: > 100 µM

COMPOUND: COc1cc(OC)cc(-c2nc3sccn3c2/C=N/N=C(N)N)c1
TGI: 14 µM

COMPOUND: Cc1ccc2[nH]c3c(c2c1)N=c1ccccc1=NO3
TGI: 51.6 µM

COMPOUND: Nc1nc(Nc2ccc(Cl)cc2)sc1C(=O)c1c[nH]c2ccccc12
TGI: 34 µM

---

- Test system: SK-MEL-28 melanoma
- ASSAY_OVERVIEW: NCI tumour cell line growth inhibition, 48 h
ASSAY_ENDPOINT: TGI (µM)

COMPOUND: COc1ccc(C(=O)c2c(-c3ccccc3NC(=O)C(F)(F)F)[nH]c3ccccc23)cc1
TESTED_SYSTEM: SK-MEL-28 melanoma
VALUE_MODIFIER: =
READING: 27.6
--
COMPOUND: CCNC(=O)NNc1ncnc2c1c(-c1ccc(Cl)cc1)cn2-c1ccc(C)cc1
TESTED_SYSTEM: SK-MEL-28 melanoma
VALUE_MODIFIER: =
READING: 33.3
--
COMPOUND: CC(=O)NNC(=S)/N=C\c1c(O)c2ccccc2oc1=O
TESTED_SYSTEM: SK-MEL-28 melanoma
VALUE_MODIFIER: >
READING: 100
--
COMPOUND: COc1cccc(OC(=O)c2ccc(C(F)(F)F)nc2Nc2c(C)cccc2Cl)c1
TESTED_SYSTEM: SK-MEL-28 melanoma
VALUE_MODIFIER: =
READING: 71.6
--
COMPOUND: COC(=O)CCCC1(CCCC(=O)OC)CCCCCCCCC(CCCC(=O)OC)(CCCC(=O)OC)C(=O)C1=O
TESTED_SYSTEM: SK-MEL-28 melanoma
VALUE_MODIFIER: >
READING: 100
--
COMPOUND: COc1ccc(OC)c(NC2=NCCO2)c1
TESTED_SYSTEM: SK-MEL-28 melanoma
VALUE_MODIFIER: >
READING: 100
--
COMPOUND: COc1ccc(N2CN(C)CSC2=S)cc1
TESTED_SYSTEM: SK-MEL-28 melanoma
VALUE_MODIFIER: >
READING: 100
--
COMPOUND: O=C(Nc1ccc2ncnc(Nc3ccc(Oc4cccc(F)c4)c(Cl)c3)c2c1)c1ccc(CN2CCOCC2)cc1
TESTED_SYSTEM: SK-MEL-28 melanoma
VALUE_MODIFIER: =
READING: 9.38
--
COMPOUND: COc1ccc(C(C#N)=C2C=CC(=NO)C=C2)cc1
TESTED_SYSTEM: SK-MEL-28 melanoma
VALUE_MODIFIER: =
READING: 86.7
--
COMPOUND: O=c1/c(=C/c2c(O)ccc3ccccc23)sc2nc3ccccc3n12
TESTED_SYSTEM: SK-MEL-28 melanoma
VALUE_MODIFIER: >
READING: 100

Just for reference, PubChem BioAssay (NCI) is where these values come from.
